Test system: P388 leukemia ip, CD2F1 mice, survival T/C
Assay: NCI In Vivo Anticancer Drug Screen. Data for tumor model P388 Leukemia (intraperitoneal) in CD2F1 (CDF1) mice
Details: endpoint: median survival time; dose: 120.0 mg/kg/injection; schedule: Q01DX005 (ip); vehicle: saline with Tween-80; higher = longer survival
Inconclusive results and toxic doses are left out.
MEASURED_ENDPOINT: T/C

Ask: # return T/C for `COc1ccccc1C(=O)Nc1c(C)cccc1Cl` , test system: P388 leukemia ip, CD2F1 mice, survival T/C
Result: 103 % of control

Ask: # return T/C for `O=C1CC(=O)N2C(=O)CC(=O)N12` , test system: P388 leukemia ip, CD2F1 mice, survival T/C
Result: 103 % of control

Ask: # return T/C for `O=S(=O)(O/C(=C(\OS(=O)(=O)C(F)(F)C(F)(F)C(F)(F)C(F)(F)F)c1ccccc1)c1ccccc1)C(F)(F)C(F)(F)C(F)(F)C(F)(F)F` , test system: P388 leukemia ip, CD2F1 mice, survival T/C
Result: 107 % of control

Ask: # return T/C for `N#Cc1c(N2CCOCC2)c(-c2ccccc2)c(N2CCOCC2)n2c1nc1ccccc12` , test system: P388 leukemia ip, CD2F1 mice, survival T/C
Result: 96 % of control

Ask: # return T/C for `NCCN.NCCN.[Cl-].[O]=[Os+2]=[O]` , test system: P388 leukemia ip, CD2F1 mice, survival T/C
Result: 114 % of control

Ask: # return T/C for `Nc1nnc(Cc2ccccc2)n1N` , test system: P388 leukemia ip, CD2F1 mice, survival T/C
Result: 100 % of control

Ask: # return T/C for `Nc1nc2nc3c(nc2c(=O)[nH]1)CCCC3` , test system: P388 leukemia ip, CD2F1 mice, survival T/C
Result: 92 % of control

----------
For each record, write down the corresponding T/C.
Tested on: P388 leukemia ip, CD2F1 mice, survival T/C
Assay: NCI In Vivo Anticancer Drug Screen. Data for tumor model P388 Leukemia (intraperitoneal) in CD2F1 (CDF1) mice
Settings: endpoint: median survival time; dose: 240.0 mg/kg/injection; schedule: Q01DX005 (ip); vehicle: saline; higher = longer survival
Toxic doses and inconclusive results are not listed.

Ask: Retrieve T/C measured for COc1ccc(C(F)C(N)C#N)cc1 (configuration not stated) and print it.
Result: 107 % of control

Ask: Retrieve T/C measured for `Nc1n[nH][nH]c1=O` and print it.
Result: 100 % of control

Ask: Retrieve T/C measured for `O/N=C/c1ccccn1` and print it.
Result: 100 % of control

Ask: Retrieve T/C measured for COc1nc(NC2OCC(O)C(O)C2O)c(C=O)c(=O)n1C (configuration not stated) and print it.
Result: 90 % of control

Ask: Retrieve T/C measured for `O=P(O)(O)CCCNO` and print it.
Result: 90 % of control

Ask: Retrieve T/C measured for `COC(=O)CCc1c(C)nc(N(C)C)oc1=O` and print it.
Result: 99 % of control

Ask: Retrieve T/C measured for `OC1(C2=COCCO2)CCCCC1` and print it.
Result: 105 % of control

Ask: Retrieve T/C measured for O=C1OC(=O)C2CCC12 (configuration not stated) and print it.
Result: 86 % of control

Ask: Retrieve T/C measured for `[O]=[Mo](=[O])=[O]` and print it.
Result: 115 % of control

Ask: Retrieve T/C measured for N[C@H]1CCC[C@@H](O)C1O (some centres not stated) and print it.
Result: 109 % of control

Ask: Retrieve T/C measured for COc1nc2c(=O)[nH]cnc2n1C1OC(CO)C(O)C1O (configuration not stated) and print it.
Result: 98 % of control

Ask: Retrieve T/C measured for CCOC(=O)C1CN2C(=O)CCC2C1=O (configuration not stated) and print it.
Result: 103 % of control

----------
For each record, write down the corresponding T/C.
Tested on: P388 leukemia ip, CD2F1 mice, survival T/C
Assay: NCI In Vivo Anticancer Drug Screen. Data for tumor model P388 Leukemia (intraperitoneal) in CD2F1 (CDF1) mice
Conditions: endpoint: median survival time; dose: 100.0 mg/kg/injection; schedule: Q01DX009 (ip); vehicle: saline with Tween-80; higher = longer survival
Inconclusive results and toxic doses are left out.

Ask: Retrieve T/C measured for `CCCCOCC(=O)OC` and print it.
Result: 102 % of control

Ask: Retrieve T/C measured for `O=C(COc1ccc(Cl)cc1Cl)Oc1c(Cl)c(Cl)c(Cl)c(Cl)c1Cl` and print it.
Result: 91 % of control

Ask: Retrieve T/C measured for `Cc1ccc(N=C(Cl)Nc2ccc(C)cc2)cc1` and print it.
Result: 108 % of control

Ask: Retrieve T/C measured for `Cc1ccc(N/N=C2\CC(=O)NC(=O)N2)cc1C` and print it.
Result: 104 % of control

Ask: Retrieve T/C measured for CC1CC(O)C2C1CC1CCC2(C)OC1(C)C (stereo not given) and print it.
Result: 105 % of control

Ask: Retrieve T/C measured for `COc1ccc(OC)c2c(=O)cc(C)[nH]c12` and print it.
Result: 107 % of control

Ask: Retrieve T/C measured for `CCOc1cc2c(Cl)ncnc2c(OCC)c1OCC` and print it.
Result: 91 % of control

Ask: Retrieve T/C measured for CC(=O)OC(CCl)C1OC(CCl)C(OC(C)=O)O1 (stereo not given) and print it.
Result: 103 % of control

Ask: Retrieve T/C measured for `NN1CC(=O)N(c2ccccc2)CC1=O` and print it.
Result: 94 % of control

Ask: Retrieve T/C measured for CCC1CN2CCc3cc(OC)c(OC)cc3C2CC1=O (stereo not given) and print it.
Result: 112 % of control

Ask: Retrieve T/C measured for `CC(C)=CCC/C(C)=C\CCl` and print it.
Result: 87 % of control

Ask: Retrieve T/C measured for `CCOC(=O)C(C)(Br)C(=O)OCC` and print it.
Result: 109 % of control

Ask: Retrieve T/C measured for `Cc1ccc(S(=O)(=O)OC2CCN(C(=O)OCc3ccccc3)CC2)cc1` and print it.
Result: 98 % of control

Ask: Retrieve T/C measured for `CC1(C)CC(=O)C(CC2C(=O)CC(C)(C)CC2=O)C(=O)C1` and print it.
Result: 103 % of control

Ask: Retrieve T/C measured for `CCCCCCCCCCCCOc1ccccc1` and print it.
Result: 104 % of control

Ask: Retrieve T/C measured for `CC1(C)CC(=O)C2(OC3=C([Se]2)C(=O)CC(C)(C)C3)C(=O)C1` and print it.
Result: 107 % of control

Ask: Retrieve T/C measured for `N#Cc1c(NC(=S)NC(=O)c2ccc(Cl)c(Cl)c2)sc(=S)c2c1CCCC2` and print it.
Result: 96 % of control

Ask: Retrieve T/C measured for CN(C)C1C=C(c2ccccc2)OS(=O)(=O)C1 (stereo not given) and print it.
Result: 97 % of control

Ask: Retrieve T/C measured for O=C1OCC/C1=C1/NC2CCCCC2NC1=O (stereo not given) and print it.
Result: 94 % of control

Ask: Retrieve T/C measured for `CSc1cccc(NC(=O)Oc2ccc(Br)cc2)c1` and print it.
Result: 93 % of control

Ask: Retrieve T/C measured for ClC1CCCC[N-]1.ClC1CCCC[N-]1.[Cl][Pt+2][Cl] (stereo not given) and print it.
Result: 97 % of control

Ask: Retrieve T/C measured for `CCCCCCCC/C=C\CCCCCCCC(=O)OCCN(CCOC(=O)CCCCCCC/C=C\CCCCCCCC)C(=O)c1ccccc1` and print it.
Result: 97 % of control

Ask: Retrieve T/C measured for COc1cc2c(cc1OC)C13CCN4CC5=CCOC6CC(=O)N2C1C6C5CC43 (stereo not given) (tested in a mixture with another compound) and print it.
Result: 106 % of control

Ask: Retrieve T/C measured for `NC(=S)N/N=C/c1ccncc1` and print it.
Result: 101 % of control

Ask: Retrieve T/C measured for `CSC(=S)N/N=C/c1cccn1C` and print it.
Result: 91 % of control

----------
For each record, write down the corresponding T/C.
System: P388 leukemia ip, CD2F1 mice, survival T/C
Assay: NCI In Vivo Anticancer Drug Screen. Data for tumor model P388 Leukemia (intraperitoneal) in CD2F1 (CDF1) mice
Conditions: endpoint: median survival time; dose: 6.25 mg/kg/injection; schedule: Q04DX003 (ip); vehicle: saline with Tween-80; higher = longer survival
Description: The antitumor activity of compounds was measured in mice bearing transplantable tumors. Survival or tumor size were measured and the results are expressed as the measurement made in the treated group (T) divided by the measurement made in the vehicle treated control group (C). The tumor model used in this assay is P388 Leukemia (intraperitoneal) in CD2F1 (CDF1) mice
Inconclusive results and toxic doses are left out.

Ask: Retrieve T/C measured for `NC(=O)CCSC1=CC(=O)c2ccccc2C1=O` and print it.
Result: 110 % of control

Ask: Retrieve T/C measured for `O=C(O)c1ccccc1C(=O)c1ccc(CBr)cc1` and print it.
Result: 91 % of control

Ask: Retrieve T/C measured for `COc1cc(N(CCCl)CCCl)ccc1NC(=O)c1ccccc1` and print it.
Result: 109 % of control

Ask: Retrieve T/C measured for `C[n+]1ccc(NC(=O)c2ccc(NC(=O)c3cccc(C(=O)Nc4ccc(C(=O)Nc5cc[n+](C)cc5)cc4)c3)cc2)cc1` and print it.
Result: 112 % of control
